Entry source: the NIST ThermoML archive (doi:10.1021/je049848j)

Assay: refractive index (Na D-line) (dimensionless)
Conditions: 293 K; 101.33 kPa; Liquid; Standard Abbe refractometry
recorded metric: refractive index

Name the recorded refractive index for CCCCCO .
1.4104

CC(=O)O , same question.
1.372

Cc1ccccc1 , same question.
1.496

CCC(=O)O , same question.
1.3811

CC(=O)OC1CCCCC1 [cyclohexyl ethanoate] , same question.
1.4398

----------
Details: Liquid; Fischer boiling apparatus
recorded metric: Normal boiling temperature (°C)

Name the recorded Normal boiling temperature for Cc1ccccc1 .
110.30

CCC(=O)O , same question.
140.90

CC(=O)OC1CCCCC1 [cyclohexyl ethanoate] , same question.
172.60

CC(=O)O , same question.
117.70

CCCCCO , same question.
138.00
